Assay: Residual fluorescent intensity after artificial light exposure (ASTM G 154-06 Cycle 1)
Type: physicochemical
Experimental: The obtained quinazolinone compound was irradiated with near-UV light in the wavelength of 365 nm, and the intensity of discharged fluorescence was measured. The fluorescent intensity was measured using a fluorescence spectrometer (DARSA-5000, PSI Co., Ltd.), under the condition of 365 nm stimulation wavelength, cumulative average of five-time measurements, and 1024×128 CCD sensor shape. […]
Mark yes (1) for The remaining fluorescence intensity (after artificial light exposure) Coating (10%) under 60%, no (0) if at or over.

{"Compound": "COc1ccc(-c2nc3ccccc3c(=O)[nH]2)c(O)c1 [Embodiment 7]", "Cat": "yes (1)"}
{"Compound": "COc1ccc(-c2nc3ccc(Cl)cc3c(=O)[nH]2)c(O)c1 [Embodiment 8]", "Cat": "yes (1)"}
{"Compound": "O=c1[nH]c(-c2cc(Cl)ccc2O)nc2ccccc12 [Embodiment 4]", "Cat": "no (0)"}
{"Compound": "O=c1[nH]c(-c2cc(Cl)ccc2O)nc2ccc(Cl)cc12 [Embodiment 5]", "Cat": "no (0)"}
{"Compound": "O=c1[nH]c(-c2cc(F)ccc2O)nc2ccccc12 [Embodiment 13]", "Cat": "no (0)"}
{"Compound": "O=c1[nH]c(-c2ccc(Cl)cc2O)nc2ccc(Cl)cc12 [Embodiment 11]", "Cat": "no (0)"}
{"Compound": "O=c1[nH]c(-c2cc(Cl)ccc2O)nc2cc(Cl)ccc12 [Embodiment 6]", "Cat": "no (0)"}
{"Compound": "O=c1[nH]c(-c2ccc(Cl)cc2O)nc2cc(Cl)ccc12 [Embodiment 12]", "Cat": "yes (1)"}
